test: relative permittivity at zero frequency (dimensionless); settings: 303.15 K; 100 kPa; Liquid; Dielectrometer
Numbers after ± are expanded uncertainties.
Each item that follows carries a reported relative permittivity at zero frequency.
Measure Name: relative permittivity at zero frequency

>>> obs_value("CCC(C)O (centres undefined)")
"15.75 ± 0.06"
>>> obs_value("CC(C)CO")
"17.23 ± 0.06"
>>> obs_value("CCCCO")
"16.91 ± 0.06"
>>> obs_value("CC(C)(C)O")
"11.34 ± 0.06"

----------
test: relative permittivity at zero frequency (dimensionless); conditions: 308.15 K; 100 kPa; Liquid; Dielectrometer
Measure Name: relative permittivity at zero frequency

>>> obs_value("CC(C)CO")
16.53
>>> obs_value("CC(C)(C)O")
10.4
>>> obs_value("CCCCO")
16.26
>>> obs_value("CCC(C)O (centres undefined)")
14.94

----------
assay: relative permittivity at zero frequency (dimensionless); settings: 298.15 K; 100 kPa; Liquid; Dielectrometer
Measure Name: relative permittivity at zero frequency

>>> obs_value("CC(C)(C)O")
12.49
>>> obs_value("CCCCO")
17.58
>>> obs_value("CCC(C)O (centres undefined)")
16.6
>>> obs_value("CC(C)CO")
17.96

----------
assay: relative permittivity at zero frequency (dimensionless); settings: 293.15 K; 100 kPa; Liquid; Dielectrometer
± gives the expanded uncertainty stated by the source.
Measure Name: relative permittivity at zero frequency

>>> obs_value("CC(C)CO [2-methyl-1-propanol]")
"18.71 ± 0.06"
>>> obs_value("CCC(C)O (centres undefined) [butan-2-ol]")
"17.51 ± 0.06"
>>> obs_value("CCCCO [butan-1-ol]")
"18.28 ± 0.06"
>>> obs_value("CC(C)(C)O [2-methylpropan-2-ol]")
"13.38 ± 0.06"

----------
# reported relative permittivity at zero frequency; entries follow
assay: relative permittivity at zero frequency (dimensionless); settings: 288.15 K; 100 kPa; Liquid; Dielectrometer
Numbers after ± are expanded uncertainties.
Measure Name: relative permittivity at zero frequency

>>> obs_value("CC(C)(C)O")
"14.49 ± 0.06"
>>> obs_value("CC(C)CO")
"19.51 ± 0.06"
>>> obs_value("CCC(C)O (centres undefined)")
"18.47 ± 0.06"
>>> obs_value("CCCCO")
"19.01 ± 0.06"
